The reported numbers originate from patent US20100184759A1.

Target: σ2-receptor (Rattus norvegicus)
Sequence (Q5U3Y7 1-176): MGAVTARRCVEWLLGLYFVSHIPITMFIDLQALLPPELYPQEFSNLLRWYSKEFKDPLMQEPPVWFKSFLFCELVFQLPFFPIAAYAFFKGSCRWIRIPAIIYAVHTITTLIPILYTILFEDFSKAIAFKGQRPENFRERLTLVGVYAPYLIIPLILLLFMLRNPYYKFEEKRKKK
pKi: −log10 of the molar value.
result type: pKi

Please review the entries below; each comes with its answer.
molecule	result type	measurement
c1ccc(-n2ncc3c2CCOC3CCN2CCCCC2)cc1 (centres unmarked) [Example 8]	pKi	6.27
c1ccc(-n2ncc3c2CCOC3CN2CCCC2)cc1 (centres unmarked) [Example 6]	pKi	6.49
c1ccc(N2CCN(CCC3OCCc4c3cnn4-c3ccccc3)CC2)cc1 (centres unmarked) [Example 11]	pKi	6.37

(I) c1ccc(-n2ncc3c2CCOC3CN2CCCCC2)cc1 (centres unmarked) [Example 1]
(II) CN(C)CCC1OCCc2c1cnn2-c1ccccc1 (centres unmarked) [Example 14]
Pick one: I or II . Which has the bigger pKi number? Bench note: the answer is the label of the chosen record. I
